# system_under_test: TACE (ADAM17) (Homo sapiens)
# Construct: made in house; host or cells: mammalian cells or insect cells
# assay_details: TACE (ADAM17) inhibition test
# Format: biochemical
# assay_setup: fluorescent synthetic substrate, 37° C. for 1.5 hours; read-out: TACE IC50
For each record, write down the corresponding IC50.

Challenge: Would you mind telling me what IC50 value was observed for COc1ccc(C2(Cn3ccccc3=O)NC(=O)NC2=O)cc1 (racemic) ?
Response given: < 0.1 µM

Challenge: # lookup: IC50 of Cc1cccn(CC2(c3ccc(OCc4ccc(F)cc4)cc3)NC(=O)NC2=O)c1=O (racemic)
Response given: < 0.1 µM

Challenge: Suppose we examine the molecule COc1ccc(C2(Cn3cccc(Cl)c3=O)NC(=O)NC2=O)cc1 (racemic) ; what IC50 value has been reported?
Response given: < 0.1 µM

Challenge: # query: IC50 of entry O=C1NC(=O)C(Cn2cccc(CO)c2=O)(c2ccc(F)c(F)c2)N1 (racemic)
Response given: ≥ 0.1 µM

---

# system_under_test: TACE (ADAM17) (Homo sapiens, UniProt P78536)
# Construct: made in house; host or cells: mammalian cells or insect cells
# Sequence (P78536 215-824): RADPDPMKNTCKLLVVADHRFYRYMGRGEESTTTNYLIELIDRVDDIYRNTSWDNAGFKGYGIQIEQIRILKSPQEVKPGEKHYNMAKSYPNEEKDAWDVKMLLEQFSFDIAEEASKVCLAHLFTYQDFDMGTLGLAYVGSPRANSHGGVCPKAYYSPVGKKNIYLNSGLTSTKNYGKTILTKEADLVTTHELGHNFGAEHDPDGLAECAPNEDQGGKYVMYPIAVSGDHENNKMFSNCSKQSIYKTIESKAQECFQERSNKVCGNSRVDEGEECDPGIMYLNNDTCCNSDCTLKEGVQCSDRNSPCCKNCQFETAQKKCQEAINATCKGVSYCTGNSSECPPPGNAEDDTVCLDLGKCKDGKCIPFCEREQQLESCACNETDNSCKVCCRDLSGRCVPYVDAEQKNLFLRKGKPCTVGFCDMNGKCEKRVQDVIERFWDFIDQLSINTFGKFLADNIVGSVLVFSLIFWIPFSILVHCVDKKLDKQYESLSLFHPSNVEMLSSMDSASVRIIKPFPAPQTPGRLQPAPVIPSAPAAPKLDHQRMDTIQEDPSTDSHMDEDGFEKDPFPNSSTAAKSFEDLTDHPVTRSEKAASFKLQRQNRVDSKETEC
# assay_details: TACE (ADAM17) inhibition test
# Type: biochemical
# assay_setup: fluorescent synthetic substrate, 37° C. for 1.5 hours; read-out: TACE IC50
Please go through the items and note down their IC50.

Challenge: Please report the recorded IC50 for COc1ccc(C2(Cn3cccc(C)c3=O)NC(=O)NC2=O)cc1OC (racemic) .
Response given: < 100 nM

Challenge: Which value of IC50 has been reported for Cc1cccn(CC2(c3cccc(O)c3)NC(=O)NC2=O)c1=O (racemic) in the records?
Response given: ≥ 100 nM

Challenge: Value lookup for IC50; key = O=C1NC(=O)C(Cn2ccccc2=O)(c2cc(F)c(F)c(F)c2)N1 (racemic)
Response given: < 100 nM

Challenge: Look up IC50 for this compound: Cc1cccn(CC2(c3ccc(Oc4ccccc4F)cc3)NC(=O)NC2=O)c1=O (racemic)
Response given: < 100 nM

Challenge: Given the compound Cc1cccn(CC2(c3ccc(Oc4ccccc4)cc3)NC(=O)NC2=O)c1=O (racemic) , what is its reported IC50?
Response given: < 100 nM

Challenge: Which value of IC50 has been reported for COc1ccccc1C1(Cn2cccc(C)c2=O)NC(=O)NC1=O (racemic) in the records?
Response given: ≥ 100 nM

Challenge: Which IC50 value belongs to Cc1cccn(CC2(c3cc4ccccc4o3)NC(=O)NC2=O)c1=O (racemic) ?
Response given: < 100 nM

Challenge: Fill in: IC50 of Cc1cccn(CC2(c3cccc(C#CCN(C)C)c3)NC(=O)NC2=O)c1=O (racemic) is ___
Response given: < 100 nM

---

# system_under_test: TACE (ADAM17) (Homo sapiens)
# Construct: made in house; host or cells: mammalian cells or insect cells
# assay_details: TACE (ADAM17) inhibition test
# Assay type: biochemical
# assay_setup: fluorescent synthetic substrate, 37° C. for 1.5 hours; read-out: TACE IC50
Would you mind telling me the reported IC50 of each entry?

Challenge: Bench note: what IC50 did C=C(C)c1cccn(CC2(c3ccc(OC)cc3)NC(=O)NC2=O)c1=O (racemic) [Compound I-144] show?
Response given: ≥ 100 nM

Challenge: Which IC50 is reported for this compound? COc1ccc(C2(Cn3cccc(C)c3=O)NC(=O)NC2=O)cc1F (racemic) [Compound I-14]
Response given: < 100 nM

Challenge: State the recorded IC50 for this entry: Cc1cccn(CC2(c3ccc(OCc4ccccc4)cc3)NC(=O)NC2=O)c1=O (racemic) [Compound I-64]
Response given: < 100 nM

Challenge: Looking for the measured IC50 of COc1cccc(Oc2ccc(C3(Cn4cccc(C)c4=O)NC(=O)NC3=O)cc2)c1 (racemic) [Compound I-83] , can you help?
Response given: < 100 nM

Challenge: Please report the recorded IC50 for Cc1cccn(CC2(c3ccc(C#Cc4ccccn4)cc3)NC(=O)NC2=O)c1=O (racemic) [Compound I-110] .
Response given: < 100 nM

Challenge: Recorded IC50 for Cc1cccn(CC2(c3ccc(CCc4ccccn4)cc3)NC(=O)NC2=O)c1=O (racemic) [Compound I-115] , please?
Response given: < 100 nM

Challenge: Need IC50, item Cc1cccn(CC2(c3cccc(-c4ccncc4)c3)NC(=O)NC2=O)c1=O (racemic) [Compound I-95]
Response given: < 100 nM

Challenge: Would you mind telling me what IC50 value was observed for Cc1cccn(CC2(c3ccc(Oc4ccccc4)c(F)c3)NC(=O)NC2=O)c1=O (racemic) [Compound I-87] ?
Response given: < 100 nM

Challenge: What does the record list as IC50 for COc1ccccc1Oc1ccc(C2(Cn3cccc(C)c3=O)NC(=O)NC2=O)cc1F (racemic) [Compound I-114] ?
Response given: < 100 nM

Challenge: Fill in the blank: the reported IC50 of Cc1cccn(CC2(c3ccc(F)cc3F)NC(=O)NC2=O)c1=O (racemic) [Compound I-61] is ____.
Response given: ≥ 100 nM

Challenge: What value of IC50 has been reported for the following compound? CCc1cccn(CC2(c3ccc(OC)cc3)NC(=O)NC2=O)c1=O (racemic) [Compound I-53]
Response given: ≥ 100 nM

Challenge: I have this compound here, Cc1ccc(Oc2ccc(C3(Cn4cccc(C)c4=O)NC(=O)NC3=O)cc2)cc1 (racemic) [Compound I-34] , and I need its recorded IC50.
Response given: < 100 nM

Challenge: Would you mind telling me what IC50 value was observed for Cc1cccn(CC2(c3ccccc3)NC(=O)NC2=O)c1=O (racemic) [Compound I-1] ?
Response given: < 100 nM

Challenge: Requested read-out: IC50. Entry: Cc1cccn(CC2(c3ccc(Oc4cccc(F)c4)c(F)c3)NC(=O)NC2=O)c1=O (racemic) [Compound I-112]
Response given: < 100 nM

Challenge: Query (compound): Cc1cccn(CC2(c3ccc4c(c3)OCCO4)NC(=O)NC2=O)c1=O (racemic) [Compound I-59] ; field requested: IC50
Response given: < 100 nM

Challenge: // returns reported IC50 for input Cc1cccn(CC2(c3ccc4ccccc4c3)NC(=O)NC2=O)c1=O (racemic) [Compound I-56]
Response given: < 100 nM
